tested on: E. coli DH5α cells; assay: Penetration efficiency of TAMRA-labeled CPPs, chemical (CaCl2) treatment method, flow cytometry; assay type: cell-based, Escherichia coli; conditions: 50 mM CaCl2-treated E. coli DH5α, 5 × 10^7 cells/50 μL, 5 μg TAMRA-CPP, distilled water, 1 h, replicate 3
Where no end group is shown, it is not given here.
Result type: Cell penetration efficiency (TAMRA fluorescence), Chemical (CaCl2) method - DW (A.U.)

Substance: Rev(34-50) (TRQARRNRRRRWRERQR; also: TAMRA label, site not given here) [CPP 15, TAMRA-labeled CPP of the 98-CPP library, one of five used to evaluate delivery methods]
Measurement units: A.U.
Endpoint result: 805.596

Substance: R9-TAT (GRRRRRRRRRPPQ; also: TAMRA label, site not given here) [CPP 14, TAMRA-labeled CPP of the 98-CPP library, one of five used to evaluate delivery methods]
Measurement units: A.U.
Endpoint result: 286.408

Substance: ppTG1 (GLFKALLKLLKSLWKLLLKA; also: TAMRA label, position not given here) [CPP 16, TAMRA-labeled CPP of the 98-CPP library, one of five used to evaluate delivery methods]
Measurement units: A.U.
Endpoint result: 176.507

Substance: Penetratin (RQIKIWFPNRRMKWKK; also: TAMRA label, site not given here) [CPP 17, TAMRA-labeled CPP of the 98-CPP library, one of five used to evaluate delivery methods]
Measurement units: A.U.
Endpoint result: 170.238

###

tested on: E. coli DH5α cells; test: Penetration efficiency of TAMRA-labeled CPPs, chemical (CaCl2) treatment method, flow cytometry; format: cell-based, Escherichia coli; conditions: 50 mM CaCl2-treated E. coli DH5α, 5 × 10^7 cells/50 μL, 5 μg TAMRA-CPP, distilled water, 1 h, replicate 2
Where no end group is shown, it is not given here.
Result type: Cell penetration efficiency (TAMRA fluorescence), Chemical (CaCl2) method - DW

Substance: Penetratin (RQIKIWFPNRRMKWKK; also: TAMRA label, site not given here) [CPP 17, TAMRA-labeled CPP of the 98-CPP library, one of five used to evaluate delivery methods]
Endpoint result: 173.67 A.U.

Substance: R9-TAT (GRRRRRRRRRPPQ; also: TAMRA label, site not given here) [CPP 14, TAMRA-labeled CPP of the 98-CPP library, one of five used to evaluate delivery methods]
Endpoint result: 216.364 A.U.

Substance: Rev(34-50) (TRQARRNRRRRWRERQR; also: TAMRA label, site not given here) [CPP 15, TAMRA-labeled CPP of the 98-CPP library, one of five used to evaluate delivery methods]
Endpoint result: 679.736 A.U.

Substance: ppTG1 (GLFKALLKLLKSLWKLLLKA; also: TAMRA label, position not given here) [CPP 16, TAMRA-labeled CPP of the 98-CPP library, one of five used to evaluate delivery methods]
Endpoint result: 237.812 A.U.

###

system: E. coli DH5α cells; experiment: Penetration efficiency of TAMRA-labeled CPPs, chemical (CaCl2) treatment method, flow cytometry; type: cell-based, Escherichia coli; conditions: 50 mM CaCl2-treated E. coli DH5α, 5 μg TAMRA-CPP, 20 mM Tris-Cl pH 7.5, 1 h, replicate 3
Where no end group is shown, it is not given here.
Result type: Cell penetration efficiency (TAMRA fluorescence), Chemical (CaCl2) method - Tris buffer (A.U.)

Substance: R9-TAT (GRRRRRRRRRPPQ; also: TAMRA label, site not given here) [CPP 14, TAMRA-labeled CPP of the 98-CPP library, one of five used to evaluate delivery methods]
Endpoint result: 297.356
--
Substance: Rev(34-50) (TRQARRNRRRRWRERQR; also: TAMRA label, site not given here) [CPP 15, TAMRA-labeled CPP of the 98-CPP library, one of five used to evaluate delivery methods]
Endpoint result: 68.163
--
Substance: ppTG1 (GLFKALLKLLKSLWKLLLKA; also: TAMRA label, position not given here) [CPP 16, TAMRA-labeled CPP of the 98-CPP library, one of five used to evaluate delivery methods]
Endpoint result: 55.663
--
Substance: Penetratin (RQIKIWFPNRRMKWKK; also: TAMRA label, site not given here) [CPP 17, TAMRA-labeled CPP of the 98-CPP library, one of five used to evaluate delivery methods]
Endpoint result: 28.6202
